# test: Metabolic stability in human liver microsomes assessed as parent compound turnover at 1 uM after 15 mins
# Assay type: ADME, Microsome
# conditionNotes: read-out: Stability
Values of metabolised at 0.25 h, 1 µM greater than or equal to 20% map to met; values below map to not met.

QUERY: Check if metabolised at 0.25 h, 1 µM >= 20% (inclusive). Item: `Cn1cc(S(=O)(=O)N2CCC(CNC(=O)c3ccc(Cl)cc3Cl)(CC3CC3)CC2)cn1`
RESULT: not met

QUERY: Check if metabolised at 0.25 h, 1 µM >= 20% (inclusive). Item: `Cn1cc(S(=O)(=O)[C@H]2CC[C@](CNC(=O)c3ccc(Cl)cc3Cl)(CC3CC3)CC2)nn1`
RESULT: met

QUERY: Check if metabolised at 0.25 h, 1 µM >= 20% (inclusive). Item: `Cn1cc(S(=O)(=O)N2CC(CNC(=O)c3ccc(Cl)cc3Cl)(c3ncccc3F)C2)cn1`
RESULT: met

New cases:
QUERY: Check if metabolised at 0.25 h, 1 µM >= 20% (inclusive). Item: `CCn1cc(S(=O)(=O)N2CC(CNC(=O)c3ccc(Cl)cc3Cl)(CC3CC3)C2)nn1`
RESULT: met

QUERY: Check if metabolised at 0.25 h, 1 µM >= 20% (inclusive). Item: `O=C(NCC1(c2ncccc2F)CCN(S(=O)(=O)CC2CC2)CC1)c1ccc(Cl)cc1Cl`
RESULT: met

---

# test: Bioavailability in Sprague-Dawley rat at 0.1 mg/kg, iv and 1 mg/kg, po
# Format: ADME, organism-based
# conditionNotes: in vivo
readoutName: bioavailability
Value and unit, in that order.

Below, each entry is followed by its recorded bioavailability result.
QUERY: Sample `Cn1cc(S(=O)(=O)N2CCC(CNC(=O)c3ccc(Cl)cc3Cl)(CC3CC3)CC2)nn1` — what was its bioavailability?
RESULT: 27%

QUERY: Sample `Cn1cc(S(=O)(=O)[C@H]2CC[C@@](CNC(=O)c3ccc(Cl)cc3Cl)(CC3CC3)CC2)nn1` — what was its bioavailability?
RESULT: 59%

QUERY: Sample `Cn1cc(S(=O)(=O)[C@H]2CC[C@](CNC(=O)c3ccc(Cl)cc3Cl)(CC3CC3)CC2)nn1` — what was its bioavailability?
RESULT: 105%

QUERY: Sample `Cn1cc(S(=O)(=O)N2CCC(CNC(=O)c3ccc(Cl)cc3Cl)(c3ncccc3F)CC2)nn1` — what was its bioavailability?
RESULT: 3%

Now look at this entry.
QUERY: Sample `Cn1cc(S(=O)(=O)N2CC(CNC(=O)c3ccc(Cl)cc3Cl)(CC3CC3)C2)cn1` — what was its bioavailability?
RESULT: 48%

---

# test: Plasma clearance in Sprague-Dawley rat at 0.1 mg/kg, iv and 1 mg/kg, po
# Type: ADME, organism-based
readoutName: clearance (mL/min/kg)
Respond with the bare value in mL/min/kg.

QUERY: Sample `Cn1cc(S(=O)(=O)N2CC(CNC(=O)c3ccc(Cl)cc3Cl)(CC3CC3)C2)cn1` — what was its clearance?
RESULT: 46

New cases:
QUERY: Sample `Cn1cc(S(=O)(=O)[C@H]2CC[C@](CNC(=O)c3ccc(Cl)cc3Cl)(CC3CC3)CC2)nn1` — what was its clearance?
RESULT: 34

QUERY: Sample `Cn1cc(S(=O)(=O)[C@H]2CC[C@@](CNC(=O)c3ccc(Cl)cc3Cl)(CC3CC3)CC2)nn1` — what was its clearance?
RESULT: 16
